Biological target: hKv1.5 (Homo sapiens, UniProt P22460)
Sequence (P22460 whole entry): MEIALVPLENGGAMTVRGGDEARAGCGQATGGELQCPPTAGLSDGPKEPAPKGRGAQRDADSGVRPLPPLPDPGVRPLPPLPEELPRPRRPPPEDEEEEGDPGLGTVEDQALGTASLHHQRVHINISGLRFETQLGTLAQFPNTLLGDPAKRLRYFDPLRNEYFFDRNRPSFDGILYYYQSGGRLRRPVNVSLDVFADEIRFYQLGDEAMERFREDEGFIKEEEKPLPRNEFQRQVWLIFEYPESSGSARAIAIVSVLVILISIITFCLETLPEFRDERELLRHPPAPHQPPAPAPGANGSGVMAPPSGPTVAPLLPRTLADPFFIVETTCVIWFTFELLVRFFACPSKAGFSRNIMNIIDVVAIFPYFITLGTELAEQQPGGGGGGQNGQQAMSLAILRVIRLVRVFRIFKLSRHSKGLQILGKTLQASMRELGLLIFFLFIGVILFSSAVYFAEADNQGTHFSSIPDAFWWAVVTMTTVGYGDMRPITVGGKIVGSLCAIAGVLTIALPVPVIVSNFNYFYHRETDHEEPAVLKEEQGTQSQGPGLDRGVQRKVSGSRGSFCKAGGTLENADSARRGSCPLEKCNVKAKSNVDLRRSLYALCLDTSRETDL
Experiment: Voltage-clamp measurement of hKv1.5 current expressed in Chinese hamster ovary (CHO) cells
Details: rested state block, first pulse; 150 ms pulses to +40 mV from -80 mV; room temperature (22-24° C); read-out: Rested State IC50, CHO Cells Expressing hKv1.5
Description: Expression of Kv1.5 in CHO Cells CHOKI cells were plated at 2.7×10^4 cells/60 mm dish and incubated at 37° C., in a 5% CO2 environment for three days. Cells were then washed twice and covered with 3 ml of OptiMEM medium (Gibco). […] Kv1.5 currents were elicited by 150 ms depolarizing test pulses to +40 mV from a holding potential of -80 mV. The effects of test agents were assessed at steady-state. Data was analyzed as % block from control current amplitude. […]
observable: pIC50
By convention, pIC50 is the negative base-10 log of a molar concentration.

Record summary for COc1ccc(-n2nc(Sc3ccc(Cl)cc3)c(C)c(C#N)c2=O)cc1 [Compound A] : reported pIC50 = 6.64

Record summary for Cc1cc(C)c(CP(=O)(c2ccccc2)c2ccccc2)c(-c2ccc(F)c(C)c2)c1 [Compound C] : reported pIC50 = 6.56

Record summary for COc1ccc(-n2nc(Sc3ccc(C)cc3)c(C)c(C#N)c2=O)cc1 [Compound B] : reported pIC50 = 6.92
